# ASSAY TARGET: Proteasome Macropain subunit MB1 (Homo sapiens, UniProt P28074)
# Sequence (P28074 whole entry): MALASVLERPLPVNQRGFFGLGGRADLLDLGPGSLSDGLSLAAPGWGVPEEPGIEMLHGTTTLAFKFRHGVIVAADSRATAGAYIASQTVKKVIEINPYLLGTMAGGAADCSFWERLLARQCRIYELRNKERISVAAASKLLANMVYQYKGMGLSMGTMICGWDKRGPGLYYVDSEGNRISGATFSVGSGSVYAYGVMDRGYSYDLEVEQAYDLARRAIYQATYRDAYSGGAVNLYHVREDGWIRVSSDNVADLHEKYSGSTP
# EXPERIMENT DESCRIPTION: Inhibition of human 20S proteasome beta5 subunit using Suc-LLVY-AMC as substrate preincubated for 2 hrs followed by substrate addition and measured after 1 hr by fluorescence intensity assay
METRIC: IC50 (µM)

STRUCTURE NOTATION	METRIC	UNITS LABEL	MEASURED NUMBER
Cc1ccc(C[C@H](NC(=O)Cc2ccccc2)B(O)O)c(C)c1	IC50	µM	26
N#Cc1ccccc1CC(=O)N[C@@H](Cc1coc2ccccc12)B(O)O	IC50	µM	1.7
Cc1cccc2c(C[C@H](NC(=O)Cc3ccccc3)B(O)O)coc12	IC50	µM	1.2
O=C(Cc1cnccn1)N[C@@H](Cc1coc2ccccc12)B(O)O	IC50	µM	0.41
O=C(Cc1ccccc1)N[C@@H](Cc1coc2c(Cl)cccc12)B(O)O	IC50	µM	0.86
Cc1ccc(C[C@H](NC(=O)Cc2ccccc2)B(O)O)cc1	IC50	µM	6.3
O=C(N[C@@H](Cc1coc2ccccc12)B(O)O)[C@@H]1C[C@@H]2CC[C@H]1O2	IC50	µM	15

A = O=C(Cn1cccn1)N[C@@H](Cc1coc2ccccc12)B(O)O
B = O=C(N[C@@H](Cc1coc2ccccc12)B(O)O)[C@H]1CCOC1
C = Cc1c(Cl)ccc2c(C[C@H](NC(=O)Cc3ccccc3)B(O)O)coc12
D = CC(C)C[C@H](NC(=O)Cc1ccccc1)B(O)O
E = COCCC(=O)N[C@@H](Cc1coc2ccccc12)B(O)O
Arrange the 5 compounds from largest to smallest IC50. Write the labels in rank order as requested. D, B, C, A, E

====

# ASSAY TARGET: Proteasome subunit beta type-8 (Homo sapiens)
# EXPERIMENT DESCRIPTION: Inhibition of 20S immunoproteasome beta-5i subunit in human PBMC using Ac-ANW-luciferin substrate preincubated for 2 hrs followed by substrate addition and measured after 30 mins by luminometric analysis
# Type: cell-based
pIC50: −log10 of the molar value.
METRIC: pIC50

STRUCTURE NOTATION	pIC50
Cc1ccc(C[C@H](NC(=O)Cc2ccccc2)B(O)O)cc1C	6.36
O=C(Cc1ccccc1)N[C@@H](C[C@H]1COc2c(Cl)cccc21)B(O)O	5.01
O=C(Cc1ccccc1)N[C@@H](Cc1cc2ccccc2o1)B(O)O	6.08
O=C(N[C@@H](Cc1coc2ccccc12)B(O)O)[C@H]1C[C@@H]2CC[C@H]1O2	7.71
Cc1cccc2c1OC[C@H]2C[C@H](NC(=O)Cc1ccccc1)B(O)O	7.28
Cc1c(Cl)ccc2c(C[C@H](NC(=O)Cc3ccccc3)B(O)O)coc12	6.79
O=C(Cc1ccccc1)N[C@@H](Cc1c(Cl)oc2ccccc12)B(O)O	6.08
O=C(N[C@@H](Cc1coc2ccccc12)B(O)O)[C@@H]1C[C@H]2CC[C@@H]1O2	8.47
O=C(Cc1ccncc1)N[C@@H](Cc1coc2ccccc12)B(O)O	7.15
O=C(Cc1cccnc1)N[C@@H](Cc1coc2ccccc12)B(O)O	7.61

A = O=C(Cc1ncccn1)N[C@@H](Cc1coc2ccccc12)B(O)O
B = CC(=O)N[C@@H](Cc1coc2ccccc12)B(O)O
C = Cc1ccc(C[C@H](NC(=O)Cc2ccccc2)B(O)O)cc1
D = CC(C)C[C@H](NC(=O)Cc1ccccc1)B(O)O
Please give the order of these molecules when sorted by pIC50, largest value leading. Could you list the labels in the order requested? A, B, C, D
(A: 7.81, B: 7.57, C: 6.36, D: 5.48)

a = N#Cc1ccccc1CC(=O)N[C@@H](Cc1coc2ccccc12)B(O)O
b = O=C(Cc1ccccc1)N[C@@H](Cc1coc2c(F)cccc12)B(O)O
c = O=C(N[C@@H](Cc1coc2ccccc12)B(O)O)[C@@H]1CCOC1
Order the records by pIC50, with each subsequent value no larger than the one before. Submit the labels in the order that the ranking request calls for. c, b, a
(c: 7.86, b: 7.64, a: 7.38)

I = O=C(Cc1ccccc1)N[C@@H](Cc1coc2c(Cl)cccc12)B(O)O
II = O=C(N[C@@H](Cc1coc2ccccc12)B(O)O)[C@@H]1CCCO1
III = COCCC(=O)N[C@@H](Cc1coc2ccccc12)B(O)O
Sequence the entries by pIC50, beginning with the highest number. Answer format: the labels, ordered as requested. III, I, II

====

# ASSAY TARGET: Proteasome subunit beta type-8 (Homo sapiens, UniProt P28062)
# EXPERIMENT DESCRIPTION: Inhibition of human 20S immunoproteasome beta-5i subunit using Suc-LLVY-AMC as substrate preincubated for 2 hrs followed by substrate addition and measured after 1 hr by fluorescence intensity assay
pIC50: −log10 of the molar value.
METRIC: pIC50

Past entries and their recorded results:
STRUCTURE NOTATION	pIC50
O=C(N[C@@H](Cc1coc2ccccc12)B(O)O)[C@@H]1CCCO1	6.72
COCCC(=O)N[C@@H](Cc1coc2ccccc12)B(O)O	8.72
O=C(N[C@@H](Cc1coc2ccccc12)B(O)O)[C@H]1C[C@@H]2CC[C@H]1O2	7.82
Cc1ccc(C[C@H](NC(=O)Cc2ccccc2)B(O)O)c(C)c1	6.89
CC(C)C[C@H](NC(=O)CNC(=O)c1cc(Cl)ccc1Cl)B(O)O	8.54
Cc1cccc2c1OC[C@H]2C[C@H](NC(=O)Cc1ccccc1)B(O)O	8.51
COc1cccc2c(C[C@H](NC(=O)Cc3ccccc3)B(O)O)coc12	8.66
O=C(N[C@@H](Cc1coc2ccccc12)B(O)O)[C@@H]1C[C@@H]2CC[C@H]1O2	7.05
O=C(N[C@@H](Cc1coc2ccccc12)B(O)O)[C@@H]1C[C@H]2CC[C@@H]1O2	8.44

1 = N#Cc1ccccc1CC(=O)N[C@@H](C[C@@H]1COc2ccccc21)B(O)O
2 = O=C(Cc1ccncc1)N[C@@H](Cc1coc2ccccc12)B(O)O
Kindly compare 1 with 2 and tell me which has the lower pIC50 figure. State the label of the item chosen. 2

====

# ASSAY TARGET: Proteasome subunit beta type-8 (Homo sapiens)
# Sequence (P28062 whole entry): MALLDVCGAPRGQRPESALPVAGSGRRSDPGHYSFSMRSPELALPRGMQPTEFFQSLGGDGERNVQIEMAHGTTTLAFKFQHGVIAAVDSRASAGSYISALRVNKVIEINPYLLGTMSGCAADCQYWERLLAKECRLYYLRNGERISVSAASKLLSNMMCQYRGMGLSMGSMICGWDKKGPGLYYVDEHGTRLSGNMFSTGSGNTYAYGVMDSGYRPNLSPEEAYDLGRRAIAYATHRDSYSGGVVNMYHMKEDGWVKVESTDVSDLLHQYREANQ
# EXPERIMENT DESCRIPTION: Inhibition of 20S immunoproteasome beta-5i subunit in human PBMC using Ac-ANW-luciferin substrate preincubated for 2 hrs followed by substrate addition and measured after 30 mins by luminometric analysis
# Format: cell-based
METRIC: IC50 (nM)

STRUCTURE NOTATION	IC50, nM
O=C(N[C@@H](Cc1coc2ccccc12)B(O)O)[C@H]1CCOC1	55

A = COCC(=O)N[C@@H](Cc1coc2ccccc12)B(O)O
B = Cc1cccc2c1OC[C@H]2C[C@H](NC(=O)Cc1ccccc1C#N)B(O)O
C = O=C(N[C@@H](Cc1coc2ccccc12)B(O)O)[C@H]1CCCO1
Endpoint returns the given molecules ordered by ascending IC50. Your reply should list the labels following the order given in the request. A, C, B
